Tested on: HeLa MZ
Assay: filipin (cholesterol) integrated intensity within LBPA endosomes, Z-score; higher = more cholesterol in LBPA endosomes
Settings: compound concentration in added solution (µM; 5 µl added to 20 µl cells): 10; 18 h
Structures can show the parent of a compound that is named as a salt.
readout.label: filipin (z-score)

* O=C(OCC(O)CO)c1ccccc1Nc1ccnc2cc(Cl)ccc12 (configuration not stated) [Glafenine hydrochloride] | 0.0497
* Cc1cc2c(cc1S(N)(=O)=O)S(=O)(=O)CCC2 [Meticrane] | -0.558
* N#Cc1ccc(C2CCCc3cncn32)cc1 (configuration not stated) [Fadrozole hydrochloride] | -0.502
* CCOC(=O)C1=C[C@]2(CC)CCCN3CCc4c(n1c1ccccc41)[C@@H]32 [Vinpocetine] | -0.0256
* CC(C)C(=O)Nc1ccc([N+](=O)[O-])c(C(F)(F)F)c1 [Flutamide] | -0.392
* CN1CCc2cccc3c2[C@H]1Cc1ccc(O)c(O)c1-3 [R(-) Apomorphine hydrochloride hemihydrate] | -0.107
* CC[C@H](c1ccc(O)cc1)[C@@H](CC)c1ccc(O)cc1 [Hexestrol] | -0.383
* CCOC(=O)C1=C(C)NC(C)=C(C(=O)OC)C1c1cccc(Cl)c1Cl (configuration not stated) [Felodipine] | -0.476
* CCN(CC)CC#CCOC(=O)C(O)(c1ccccc1)C1CCCCC1 (configuration not stated) [Oxybutynin chloride] | 1.15
* CC(C(=O)O)c1ccc2c(c1)Cc1cccnc1O2 (configuration not stated) [Pranoprofen] | -0.553
* CC(=O)OCC(CCn1cnc2cnc(N)nc21)COC(C)=O [Famciclovir] | -0.386
* CCN(CC)CCOC(=O)C(Cc1cccc2ccccc12)CC1CCCO1 (configuration not stated) [Nafronyl oxalate] | 1.15
* CCCc1nc2c(C)cc(-c3nc4ccccc4n3C)cc2n1Cc1ccc(-c2ccccc2C(=O)O)cc1 [Telmisartan] | -0.264
* CN1CCN2c3ccccc3Cc3ccccc3C2C1 (configuration not stated) [Mianserine hydrochloride] | 1.54
* CCN[C@H]1C[C@H](C)S(=O)(=O)c2sc(S(N)(=O)=O)cc21 [Dorzolamide hydrochloride] | -0.217
* CC(C)NCC(O)c1ccc(O)c(O)c1 (single isomer, unassigned; (+)) [(+)-Isoproterenol (+)-bitartrate salt] | -0.475
* CCC1=C(C)CN(C(=O)NCCc2ccc(S(=O)(=O)NC(=O)N[C@H]3CC[C@H](C)CC3)cc2)C1=O [Glimepiride] | -0.486

###

System: HeLa MZ
Test: filipin (cholesterol) integrated intensity within LBPA endosomes, Z-score; higher = more cholesterol in LBPA endosomes
Conditions: compound concentration in added solution (µM; 5 µl added to 20 µl cells): 10; 18 h
Where a name gives a salt, the structure may show the parent alone.
readout.label: filipin (z-score)

• CC1(C)S[C@@H]2[C@H](NC(=O)[C@H](N)c3ccc(O)cc3)C(=O)N2[C@H]1C(=O)O = -0.539
• CC1=C(/C=C/C(C)=C/C=C/C(C)=C/C(=O)O)C(C)(C)CCC1 = -0.43
• Nc1ccc(S(=O)(=O)NC(=O)c2ccccc2)cc1 [Sulfabenzamide] = -0.401
• CC1(C)S[C@@H]2[C@H](NC(=O)[C@H](N)c3ccccc3)C(=O)N2[C@H]1C(=O)O [Ampicillin trihydrate] = -0.702
• Cc1c(C)c2c(c(C)c1O)CCC(C)(C(=O)O)O2 (stereo not drawn) = -0.401
• C[C@@H](O)[C@H]1C(=O)N2C(C(=O)O)=C(SCCNC=N)C[C@H]12 = -0.385
• CCOC(=O)Nc1ccc2c(c1)N(C(=O)CCN1CCOCC1)c1ccccc1S2 [Moricizine hydrochloride] = 0.233
• CCc1nn(CCCN2CCN(c3cccc(Cl)c3)CC2)c(=O)n1CCOc1ccccc1 [Nefazodone HCl] = 1.14

# credit: the supplement of paper PMC6607015
